- assay_remarks: First-in-human Part 2 multiple ascending dose q.d. blood and urine PK
- Assay type: in vivo
- condition_notes: human, blood, oral, 10 mg, 10 mg qd, Day 1, blood; Mean ± SD; read-out: AUClast
measured_attribute: AUC(0-t) (ng·h/mL)
Your answer is read as ng·h/mL, so omit the unit and give the number.

Provide one value: measured AUC(0-t) of `C=CC(=O)N(C)CCOc1c(N)ncnc1-c1cc(F)cc(NC(=O)c2ccc(C3CC3)cc2F)c1C`
4.17

----------
- assay_remarks: First-in-human Part 2 multiple ascending dose q.d. blood and urine PK
- Assay type: in vivo
- condition_notes: human, blood, oral, 400 mg, 400 mg qd, Day 12, blood; Median (Min-Max); read-out: Vss/F
measured_attribute: Vd/F
Provide the measurement as a number trailed by its unit.

Provide one value: measured Vd/F of `C=CC(=O)N(C)CCOc1c(N)ncnc1-c1cc(F)cc(NC(=O)c2ccc(C3CC3)cc2F)c1C`
3440 L
